# test: Quantitative High-Throughput drug screen in 47 multiple myeloma cell lines against the NCATS MIPE library collection: OCIMY1_PLB cell viability assay (AID 1918979); note: nearly all actives have a fitted effect of over 35% in size
# testSettings: OCI-MY1 myeloma viability, CellTiter-Glo ATP, 48 h; series mostly up to 45.8 µM
Inconclusive results are not listed. Activity calls are given as the source filed them. Calls come from the whole dose curve; as a rule, active = well fitted cell-killing curve with a large enough effect; inconclusive = small, poorly fitted or top-dose-only effect, or effect the other way; inactive = no such curve, though single readings can be large or run the other way.
Outcomes: active, inactive

>>> assignedclass("CCNC(=O)CCCC=CC[C@@H]1[C@H](C=CC(O)CCc2ccccc2)[C@@H](O)C[C@@H]1O (some centres undefined)")
"inactive"
>>> assignedclass("C[C@]12CCC3=C4CCC(=O)C=C4CC[C@@H]3[C@H]1CC[C@@]2(O)CC#N")
"inactive"
>>> assignedclass("CCC(C)SSc1ncc[nH]1 (centres undefined)")
"active"
>>> assignedclass("C[C@@H]1[C@H](C)CC[C@]2(C(=O)O)CC[C@]3(C)C(=CC[C@@H]4[C@@]5(C)CC[C@H](O)C(C)(C)[C@H]5CC[C@]43C)[C@@H]12")
"active"
>>> assignedclass("CC1(COc2ccc3c(c2)ncn3-c2ccc3cccc(N4CCC(N)CC4)c3n2)COC1")
"active"
>>> assignedclass("COc1c(C)c2c(c(O)c1CC=C(C)CCC(=O)O)C(=O)OC2")
"active"
>>> assignedclass("Cc1cc(C(C)Nc2ccccc2)c2nc(N3CCOCC3)cc(=O)n2c1 (centres undefined)")
"inactive"
>>> assignedclass("CCC(=O)NCC[C@@H]1CCc2ccc3c(c21)CCO3")
"inactive"
>>> assignedclass("Fc1ccc(C(c2ccc(F)cc2)N2CCN(CC=Cc3ccccc3)CC2)cc1")
"inactive"
